Test system: MS2 coat protein
assay_text: apparent KD of MS2 coat protein; designed switch direction (-1 OFF switch, 1 ON switch): -1; higher = weaker reporter binding
stated_conditions: input ligand: FMN 200 uM
Assign yes whenever apparent KD of MS2 coat protein does not fall below 60 nM; assign no whenever it does.

• CAGCUGAAUGUGAGGAUAUUACGAGCCUCGGCUCGUGAGAAGGCACAUGAGGAUCACCCAUGUCUCAACAGCUG [BmEx4/2-B2] (Eterna round: R97, puzzle: Brourd's mod of Exclusion 4) = yes
• GUCAUCACACAUGGGAUCAACAUGAGGAUCACCCAUGUUGUCAAGUUUUUUGCUCGUCUUAUAAUACGUUUGAUGAG [Mod-Jxd] (Eterna round: R97, puzzle: Sensor, turn-off variant 1) = yes
• GGAUUUUCUGAGGAUAUUGCAUCACCCGAUUUAUAAGAAGGCAGAACAUGAGGAUCACCCAUGUGGGUCUCUAG [Bingo-Bango-26] (Eterna round: R97, puzzle: Exclusion 6) = no
• AGAUGUUAUAAGGAUAUGCAGGCCAUCGCAUCAGCAGAAGGUGUAACAUGAGGAUCACCCAUGUAAACGAACUG [Eternabot (L1) Solution 44] (Eterna round: R97, puzzle: Exclusion 6) = no
